Hello, the source for this data is a melting point compilation (Tetko et al.; mined from patent text by program, amines drawn as free bases though some values may be those of a salt), in case you need it.

quantity_measured: melting point

Dear colleague, please send me the reported melting point for CNC(=O)C(c1ccccc1F)N(C(=O)CNC(=O)Nc1cccc(C)c1)c1cccc(OC)c1 (stereo not drawn) when you can.
110 °C

***
Dear colleague, please send me the reported melting point for C#CCn1c(=O)sc2cc(F)c(-n3c(=O)cc(C)[nH]c3=O)cc21 when you can.
> 250 °C

Dear colleague, please send me the reported melting point for N#Cc1ccccc1-c1cccc(-c2cnc3nc(C(F)(F)F)cnn23)c1F when you can.
167 to 168 °C

Dear colleague, please send me the reported melting point for CC(=O)NC(C)C1=NN(Cc2ccccc2)C(C)NC1=O (stereo not drawn) when you can.
196 to 203 °C

Dear colleague, please send me the reported melting point for CC(c1cccnn1)C(O)(Cn1cncn1)c1ccc(F)cc1F (stereo not drawn) when you can.
134 to 135 °C

Dear colleague, please send me the reported melting point for CSCc1nn(CCC#N)c(O)c1C when you can.
98 °C

Dear colleague, please send me the reported melting point for C#Cc1[nH]c2cccc3c2c1CC1C3CC(NC(=O)N(CC)CC)CN1C (stereo not drawn) when you can.
192 °C

Dear colleague, please send me the reported melting point for O=C(CC(O)C(=O)O)c1ccc(C(F)(F)F)cc1 (stereo not drawn) when you can.
118 to 120 °C

Dear colleague, please send me the reported melting point for CC(C)C(NC=O)C(=O)O (stereo not drawn) when you can.
143 to 145 °C

Dear colleague, please send me the reported melting point for COC(=O)C=CN1c2ccccc2Sc2nccnc21 when you can.
165 to 169 °C

Dear colleague, please send me the reported melting point for COc1ccc2c(c1)C1=NNC(c3ccncc3)C1CCC2 (stereo not drawn) when you can.
162 to 166 °C

Dear colleague, please send me the reported melting point for CN1CS(=O)c2ccccc21 (stereo not drawn) when you can.
70 to 73.5 °C

Dear colleague, please send me the reported melting point for CC(C)(C)c1cccc(C(=O)O)c1 when you can.
96 to 97 °C

Dear colleague, please send me the reported melting point for Cc1oc2ccc(-n3nnc4cccnc43)cc2c1C when you can.
152 to 153 °C

Dear colleague, please send me the reported melting point for COc1c(C)c(CO)c(OC)c2ccccc12 when you can.
116 to 117 °C

Dear colleague, please send me the reported melting point for Cc1nc(NC(=O)c2ccco2)sc1C(=O)c1sc(NC(=O)c2ccco2)nc1C when you can.
198 to 199 °C

Dear colleague, please send me the reported melting point for CC(C)(C)OC(=O)N1CCN(c2cc(Cl)ccc2N)CC1 when you can.
125 to 127 °C

Dear colleague, please send me the reported melting point for CCOC(=O)c1ncc2[nH]c3ccc(SC)cc3c2n1 when you can.
265 to 266 °C

Dear colleague, please send me the reported melting point for CCCCCCCCCCNC(=O)c1ccc(N(CC(=O)OC)CC(=O)OC)cc1 when you can.
104 to 106 °C

Dear colleague, please send me the reported melting point for CC(CSC(=O)c1ccccc1)C(=O)N(CC(=O)O)C1CCC(c2ccccc2)CC1 (stereo not drawn) when you can.
180 to 181 °C

Dear colleague, please send me the reported melting point for OCCNCC(O)c1ccccc1 (stereo not drawn) when you can.
96 to 98 °C

Dear colleague, please send me the reported melting point for COC(=O)COCc1cc(Br)ccc1C(=O)OC when you can.
60 to 62 °C

Dear colleague, please send me the reported melting point for CC12CC(O)C3c4ccccc4C(=O)CC3C1CCC2O (stereo not drawn) when you can.
205 to 208 °C

Dear colleague, please send me the reported melting point for O=c1c2ccccc2oc2cc(OCC(O)CCl)cc(O)c12 (stereo not drawn) when you can.
144 °C

Dear colleague, please send me the reported melting point for CCCCCCCCCCN(C[C@H]1CC[C@H](CN(CCCCCCCCCC)C(=O)Nc2ccc(N(C)C)cc2)CC1)C(=O)Nc1ccc(N(C)C)cc1 when you can.
125 to 127 °C
